biological target: PHKG1 (human) (UniProt Q16816); experiment: radiometric filter-binding kinase assay; settings: compound 10.0 µM
Sequence (Q16816 whole entry, looked up): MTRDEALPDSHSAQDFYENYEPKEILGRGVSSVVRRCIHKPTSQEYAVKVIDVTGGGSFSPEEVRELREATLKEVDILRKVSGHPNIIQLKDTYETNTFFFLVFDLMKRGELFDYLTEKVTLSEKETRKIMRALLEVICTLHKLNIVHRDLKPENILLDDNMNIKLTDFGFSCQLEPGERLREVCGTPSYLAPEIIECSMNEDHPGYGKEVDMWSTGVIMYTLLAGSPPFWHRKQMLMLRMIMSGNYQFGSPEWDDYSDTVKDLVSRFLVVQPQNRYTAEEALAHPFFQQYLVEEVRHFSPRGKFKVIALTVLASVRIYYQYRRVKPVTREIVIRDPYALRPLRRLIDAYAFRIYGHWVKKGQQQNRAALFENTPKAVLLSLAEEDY
measurement-name: residual activity (%)
Hi! Could you send only the number? It should be in %, unit omitted.

Solved cases (10 shown):
Cn1nc(Nc2ccc(F)cc2)c2c(N)ncnc21 : 119
C=CC(=O)N1CCC[C@@H](n2nc(-c3ccc(Oc4ccccc4)cc3)c3c(N)ncnc32)C1 : 92
Cc1nc(-c2ccc(OCC(C)C)c(C#N)c2)sc1C(=O)O : 83
NS(=O)(=O)OC[C@@H]1C[C@@H](n2ccc3c(N[C@H]4CCc5ccccc54)ncnc32)C[C@@H]1O : 106
NCC(=O)Nc1ccc(-n2nc(C(F)(F)F)cc2-c2ccc3c(ccc4ccccc43)c2)cc1 : 72
CC(C)(C#N)c1ccc(N2C(=O)OCc3cnc4ccc(-c5cnc6ccccc6c5)cc4c32)cc1 : 92
O=C1Nc2nc(-c3c(O)cccc3OCC3CC3)cc(C3CCCNC3)c2CO1 (stereo unspecified) : 21
O=C(Nc1cccnc1)c1cc(-c2ccnc(F)c2)ccc1OCc1ccccc1 : 75
Cc1ccc2c(c1)C(=O)[C@@]1(O)CCN(c3ccccc3)C1=N2 : 114
NC(=O)c1ccc(-c2ccc(Oc3cncc4sc(-c5nn[nH]n5)cc34)cc2)cc1 : 84

Write down the reported residual activity of CN1C(=O)[C@@H](Cc2c[nH]c3ccccc23)NC1=S , test system: PHKG1 (human) (UniProt Q16816).
97

Now give it for Nc1cccc2c1CN(C1CCC(=O)NC1=O)C2=O (stereo unspecified) too.
103

Now give it for Oc1ccc2ccccc2c1SSc1c(O)ccc2ccccc12 too.
108

Now give it for Cc1cccc(Nc2nn(C)c3ncnc(N)c23)c1 too.
101

Now give it for NC(=O)c1cc(-c2ccnc(NC3CCCCC3)c2)nc(N2CCNCC2)c1 too.
5

Now give it for NC(=O)Nc1ccc2c(c1)/C(=C/c1cc(-c3cccnc3)c[nH]1)C(=O)N2 too.
0

----------
target: MAP4K5 (human); assay: radiometric filter-binding kinase assay; conditions: compound 10.0 µM
Threshold 90%. residual activity below it: TRUE. residual activity at it or above: FALSE.

NCC(=O)Nc1ccc(-n2nc(C(F)(F)F)cc2-c2ccc3c(ccc4ccccc43)c2)cc1 : TRUE

hey, is residual activity for Nc1cccc2c1CN(C1CCC(=O)NC1=O)C2=O (stereo not drawn) lower than 90% or not?
FALSE

Now give it for Cc1ccc(-c2ccc3c(ccc4sc5c(c43)NC[C@@H](C)NC5=O)n2)cn1 too.
TRUE

Now give it for CCn1c(-c2nonc2N)nc2cncc(CNC3CCNCC3)c21 too.
TRUE

Now give it for CC1=C(CO)C(=O)O[C@@H]([C@@H](C)[C@H]2CC[C@H]3[C@@H]4C[C@H]5O[C@]56[C@@H](O)C=CC(=O)[C@]6(C)C4CC[C@]23C)C1 (stereo partly drawn) too.
FALSE

----------
Measured residual activity, listed per entry for reference.
molecular target: NEK6 (human); assay: radiometric filter-binding kinase assay; conditions: compound 0.1 µM
Provide a numeric answer, followed by its unit.

Given the molecule NC(=O)c1cc(-c2ccnc(NC3CCCCC3)c2)nc(N2CCNCC2)c1 , what is its reported residual activity?
86%

----------
target: FLT1 (human) (UniProt P17948); test: radiometric filter-binding kinase assay; conditions: compound 1.0 µM
Sequence (P17948 whole entry, looked up): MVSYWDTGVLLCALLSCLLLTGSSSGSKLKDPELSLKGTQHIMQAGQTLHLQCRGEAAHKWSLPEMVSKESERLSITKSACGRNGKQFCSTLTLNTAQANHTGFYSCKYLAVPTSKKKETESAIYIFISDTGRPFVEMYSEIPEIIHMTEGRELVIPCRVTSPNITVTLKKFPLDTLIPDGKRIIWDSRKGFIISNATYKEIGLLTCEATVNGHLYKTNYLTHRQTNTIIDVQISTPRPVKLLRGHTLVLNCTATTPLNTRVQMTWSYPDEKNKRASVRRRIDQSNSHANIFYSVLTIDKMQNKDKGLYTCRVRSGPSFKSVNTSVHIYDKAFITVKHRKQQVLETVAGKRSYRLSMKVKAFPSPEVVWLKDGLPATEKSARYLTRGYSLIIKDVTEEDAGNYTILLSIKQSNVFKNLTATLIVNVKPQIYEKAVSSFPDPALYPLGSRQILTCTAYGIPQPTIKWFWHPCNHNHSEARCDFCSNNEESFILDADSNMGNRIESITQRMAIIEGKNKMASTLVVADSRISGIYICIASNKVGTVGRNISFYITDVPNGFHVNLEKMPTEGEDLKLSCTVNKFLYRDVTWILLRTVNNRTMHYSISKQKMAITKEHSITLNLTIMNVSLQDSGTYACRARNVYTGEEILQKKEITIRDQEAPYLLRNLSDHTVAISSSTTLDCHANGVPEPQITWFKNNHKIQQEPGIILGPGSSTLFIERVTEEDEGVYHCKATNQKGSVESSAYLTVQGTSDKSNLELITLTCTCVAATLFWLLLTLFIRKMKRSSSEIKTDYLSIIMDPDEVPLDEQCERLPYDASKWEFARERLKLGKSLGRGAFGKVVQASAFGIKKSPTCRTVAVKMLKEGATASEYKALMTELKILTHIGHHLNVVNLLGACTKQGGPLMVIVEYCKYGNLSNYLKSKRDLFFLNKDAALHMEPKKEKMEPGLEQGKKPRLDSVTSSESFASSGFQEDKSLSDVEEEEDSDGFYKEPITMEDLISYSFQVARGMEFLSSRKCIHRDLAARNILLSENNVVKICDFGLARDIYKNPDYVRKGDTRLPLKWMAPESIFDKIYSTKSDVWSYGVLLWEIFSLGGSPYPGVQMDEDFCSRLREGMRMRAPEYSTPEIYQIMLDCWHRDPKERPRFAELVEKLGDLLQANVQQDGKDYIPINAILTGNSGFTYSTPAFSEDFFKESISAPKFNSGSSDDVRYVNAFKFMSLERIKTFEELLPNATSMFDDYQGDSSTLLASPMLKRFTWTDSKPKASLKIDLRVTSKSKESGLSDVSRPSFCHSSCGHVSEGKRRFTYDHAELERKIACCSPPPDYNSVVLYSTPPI
// label = Y if residual activity is not less than 80%, otherwise N

CNC(=O)C1[C@H]2O[C@@](C)([C@@H]1N)n1c3ccccc3c3c4c(c5c6ccccc6n2c5c31)C(=O)NC4 (stereo not given in full) : N

Record NC(=O)Nc1ccc2c(c1)/C(=C/c1cc(-c3cccnc3)c[nH]1)C(=O)N2 ; criterion: residual activity no lower than 80%. Met?
N

Now give it for CNc1nc(-c2ccc3c(N)n[nH]c3c2)cc(N2C[C@@H](C(=O)NC3CCCCC3)CC[C@H]2C)n1 too.
Y

Now give it for Cc1ccc(Sc2cnc(Nc3cccc(Br)n3)s2)cc1C(=O)N1CCN(C(=O)CN)CC1 too.
N

Now give it for C=CC(=O)N1CCC[C@@H](n2nc(-c3ccc(Oc4ccccc4)cc3)c3c(N)ncnc32)C1 too.
N

Now give it for O=C(N[C@@H](COc1ccc2[nH]c(=O)[nH]c2c1)c1ccccc1)c1cccn(Cc2ccc(F)c(F)c2)c1=O too.
Y

Now give it for O=C(Nc1nc2cc(C(F)(F)F)cc(NC3CC3)n2n1)c1cccnc1 too.
Y

Now give it for COc1cc2ncn(-c3cc(OCc4ccccc4S(C)(=O)=O)c(C#N)s3)c2cc1OC too.
N

Now give it for Cc1ccc(=O)n(-c2ccccc2)c1 too.
Y
